Source listed as ChEMBL document CHEMBL1128713.

# Protocol summary: Competitive Inhibitory activity against Endoplasmic reticulum Alpha-Glucosidase II
# Set-up: species or system Rattus norvegicus

Smiles representation	Ki / µM
CN1C[C@@H](O)[C@H](O)[C@H]1CO	150
CCCCN1C[C@H](O)[C@@H](O)[C@H](O)[C@H]1CO	3.7
CCCCN1C[C@@H](O)[C@H](O)[C@H]1CO	95
OC[C@H]1NC[C@@H](O)[C@@H]1O	9.7
CN1C[C@H](O)[C@@H](O)[C@H](O)[C@H]1CO	5.8

====

# System: Trehalase (Rattus norvegicus, UniProt O70282)
# Sequence (O70282 whole entry): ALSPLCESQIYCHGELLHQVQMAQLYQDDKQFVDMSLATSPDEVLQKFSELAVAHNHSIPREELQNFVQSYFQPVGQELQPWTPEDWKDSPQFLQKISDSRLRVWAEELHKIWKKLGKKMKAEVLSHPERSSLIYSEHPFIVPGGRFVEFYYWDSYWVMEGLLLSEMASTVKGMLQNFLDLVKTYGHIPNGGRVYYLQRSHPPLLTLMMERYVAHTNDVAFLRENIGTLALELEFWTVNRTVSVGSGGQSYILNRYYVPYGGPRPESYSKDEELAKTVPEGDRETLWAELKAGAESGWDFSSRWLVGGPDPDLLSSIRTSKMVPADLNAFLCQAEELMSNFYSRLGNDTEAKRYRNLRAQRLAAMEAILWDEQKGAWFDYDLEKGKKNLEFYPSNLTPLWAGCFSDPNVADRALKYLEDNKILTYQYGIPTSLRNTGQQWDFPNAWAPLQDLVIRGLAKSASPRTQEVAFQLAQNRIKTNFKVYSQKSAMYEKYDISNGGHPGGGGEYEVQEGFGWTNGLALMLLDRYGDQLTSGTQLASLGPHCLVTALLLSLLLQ
# Protocol summary: Inhibition of Glycosidases (trehalase)in rat intestinal brush border membranes by D-glucose oxidase-peroxidase method
# Format: cell membranes, Membrane
pIC50: −log10 of the molar value.

Smiles representation	System	Bound type	pIC50
OC[C@H]1NC[C@@H](O)[C@@H]1O	Trehalase (Rattus norvegicus, UniProt O70282)	=	4.60
CN1C[C@H](O)[C@@H](O)[C@H](O)[C@H]1CO	Trehalase (Rattus norvegicus, UniProt O70282)	=	4.55
CCCCN1C[C@@H](O)[C@H](O)[C@H]1CO	Trehalase (Rattus norvegicus, UniProt O70282)	>	4.30
CCCCN1C[C@H](O)[C@@H](O)[C@H](O)[C@H]1CO	Trehalase (Rattus norvegicus, UniProt O70282)	=	4.89
CN1C[C@@H](O)[C@H](O)[C@H]1CO	Trehalase (Rattus norvegicus, UniProt O70282)	>	4.30

====

Entries and their IC50
# System: Mannosidase 2, alpha B1 (Rattus norvegicus)
# Sequence (Q6P762 whole entry): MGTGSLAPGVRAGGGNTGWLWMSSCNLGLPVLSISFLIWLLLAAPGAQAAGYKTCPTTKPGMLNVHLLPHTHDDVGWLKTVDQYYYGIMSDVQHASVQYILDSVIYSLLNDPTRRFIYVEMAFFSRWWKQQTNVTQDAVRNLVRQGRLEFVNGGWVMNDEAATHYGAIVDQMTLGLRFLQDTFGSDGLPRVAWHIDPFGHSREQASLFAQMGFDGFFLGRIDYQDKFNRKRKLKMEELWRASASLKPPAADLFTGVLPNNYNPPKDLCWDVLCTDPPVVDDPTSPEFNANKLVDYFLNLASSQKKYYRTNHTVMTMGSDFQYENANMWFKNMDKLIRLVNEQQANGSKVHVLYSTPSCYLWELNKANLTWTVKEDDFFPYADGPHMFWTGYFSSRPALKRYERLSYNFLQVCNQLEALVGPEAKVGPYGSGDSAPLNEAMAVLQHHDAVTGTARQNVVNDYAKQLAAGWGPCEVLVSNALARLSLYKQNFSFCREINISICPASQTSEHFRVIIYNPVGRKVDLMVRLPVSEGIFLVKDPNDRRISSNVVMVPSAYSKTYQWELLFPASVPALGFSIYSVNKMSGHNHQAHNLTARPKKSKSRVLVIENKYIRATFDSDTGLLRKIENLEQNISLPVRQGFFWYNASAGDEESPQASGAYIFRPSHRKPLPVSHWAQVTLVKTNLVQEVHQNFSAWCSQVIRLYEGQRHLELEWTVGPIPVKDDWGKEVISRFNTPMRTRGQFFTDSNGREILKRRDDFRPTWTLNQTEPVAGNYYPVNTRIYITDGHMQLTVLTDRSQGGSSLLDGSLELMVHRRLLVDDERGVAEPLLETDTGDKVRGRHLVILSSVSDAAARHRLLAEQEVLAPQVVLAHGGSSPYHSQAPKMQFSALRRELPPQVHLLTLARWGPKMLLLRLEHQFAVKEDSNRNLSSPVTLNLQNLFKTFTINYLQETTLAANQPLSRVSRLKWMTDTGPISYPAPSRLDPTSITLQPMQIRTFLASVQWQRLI

Smiles representation	IC50
CCCCN1C[C@@H](O)[C@H](O)[C@H]1CO	< 50 µM
CCCCN1[C@H](CO)[C@@H](O)[C@H](O)[C@H]1CO	< 50 µM

====

# System: Sucrase-isomaltase, intestinal (Rattus norvegicus, UniProt P23739)
# Sequence (P23739 1-1013 limits assumed): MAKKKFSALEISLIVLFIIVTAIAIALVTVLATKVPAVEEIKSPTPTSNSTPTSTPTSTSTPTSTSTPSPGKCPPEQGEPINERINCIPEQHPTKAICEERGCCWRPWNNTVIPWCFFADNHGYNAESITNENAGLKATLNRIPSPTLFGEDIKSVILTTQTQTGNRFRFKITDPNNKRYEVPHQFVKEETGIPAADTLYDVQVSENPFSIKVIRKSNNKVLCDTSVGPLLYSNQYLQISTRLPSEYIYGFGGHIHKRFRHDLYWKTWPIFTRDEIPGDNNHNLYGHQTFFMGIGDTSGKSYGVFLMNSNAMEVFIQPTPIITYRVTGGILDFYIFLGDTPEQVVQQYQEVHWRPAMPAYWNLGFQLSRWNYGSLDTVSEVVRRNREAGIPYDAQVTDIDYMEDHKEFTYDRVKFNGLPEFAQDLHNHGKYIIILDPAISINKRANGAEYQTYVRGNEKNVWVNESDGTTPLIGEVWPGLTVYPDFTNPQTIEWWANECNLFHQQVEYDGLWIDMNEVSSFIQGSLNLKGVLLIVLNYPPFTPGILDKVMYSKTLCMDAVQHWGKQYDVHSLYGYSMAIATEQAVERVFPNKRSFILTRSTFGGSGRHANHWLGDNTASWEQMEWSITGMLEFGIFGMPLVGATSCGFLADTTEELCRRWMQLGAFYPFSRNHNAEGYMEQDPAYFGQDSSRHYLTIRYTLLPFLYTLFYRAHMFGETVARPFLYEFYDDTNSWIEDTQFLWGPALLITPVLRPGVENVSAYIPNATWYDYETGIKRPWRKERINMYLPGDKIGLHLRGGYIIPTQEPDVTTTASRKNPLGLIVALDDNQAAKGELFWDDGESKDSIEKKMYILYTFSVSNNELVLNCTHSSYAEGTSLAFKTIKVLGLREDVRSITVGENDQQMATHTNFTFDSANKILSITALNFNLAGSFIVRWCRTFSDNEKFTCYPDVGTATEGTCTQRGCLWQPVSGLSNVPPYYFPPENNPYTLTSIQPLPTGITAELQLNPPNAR
# Sequence (P23739 1014-1841 limits assumed): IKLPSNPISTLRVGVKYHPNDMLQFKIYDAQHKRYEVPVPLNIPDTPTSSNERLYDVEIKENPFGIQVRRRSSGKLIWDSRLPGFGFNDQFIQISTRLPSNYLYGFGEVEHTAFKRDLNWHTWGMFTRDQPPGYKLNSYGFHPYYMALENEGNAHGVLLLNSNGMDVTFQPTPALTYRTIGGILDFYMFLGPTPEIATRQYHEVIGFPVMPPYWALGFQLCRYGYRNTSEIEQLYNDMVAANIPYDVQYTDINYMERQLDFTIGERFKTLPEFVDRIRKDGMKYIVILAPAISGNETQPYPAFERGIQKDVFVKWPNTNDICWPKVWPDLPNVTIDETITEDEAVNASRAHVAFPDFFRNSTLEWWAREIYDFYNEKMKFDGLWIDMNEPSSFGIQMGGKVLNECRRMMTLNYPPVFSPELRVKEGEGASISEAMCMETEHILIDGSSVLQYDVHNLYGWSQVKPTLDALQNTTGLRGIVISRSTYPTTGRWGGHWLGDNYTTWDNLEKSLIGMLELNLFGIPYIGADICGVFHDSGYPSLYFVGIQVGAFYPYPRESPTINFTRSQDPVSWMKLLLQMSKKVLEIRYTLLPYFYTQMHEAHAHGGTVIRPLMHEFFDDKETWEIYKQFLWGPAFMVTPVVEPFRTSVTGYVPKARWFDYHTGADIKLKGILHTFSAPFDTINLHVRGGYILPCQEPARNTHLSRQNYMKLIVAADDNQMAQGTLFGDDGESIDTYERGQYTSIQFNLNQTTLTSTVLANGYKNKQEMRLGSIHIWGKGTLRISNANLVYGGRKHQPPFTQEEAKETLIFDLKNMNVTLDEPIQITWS
# Protocol summary: Inhibition of Glycosidases (isomaltase)in rat intestinal brush border membranes by D-glucose oxidase-peroxidase method
# Format: cell membranes, Membrane
pIC50: −log10 of the molar value.
Entries and their pIC50

Smiles representation	Bound type	pIC50
CCCCN1C[C@@H](O)[C@H](O)[C@H]1CO	=	3.47
CN1C[C@@H](O)[C@H](O)[C@H]1CO	=	4.00
CN1C[C@H](O)[C@@H](O)[C@H](O)[C@H]1CO	=	5.36
CN1[C@H](CO)[C@@H](O)[C@H](O)[C@H]1CO	>	4.30
OC[C@H]1N[C@H](CO)[C@@H](O)[C@@H]1O	=	4.04
CCCCN1[C@H](CO)[C@@H](O)[C@H](O)[C@H]1CO	>	4.30

====

# Protocol summary: Inhibition of lysosomal Alpha-Glucosidase II in rat liver

Smiles representation	Bound type	IC50 (µM)
CCCCN1[C@H](CO)[C@@H](O)[C@H](O)[C@H]1CO	<	50
CN1[C@H](CO)[C@@H](O)[C@H](O)[C@H]1CO	=	470
OC[C@H]1NC[C@@H](O)[C@@H]1O	=	130
CCCCN1C[C@@H](O)[C@H](O)[C@H]1CO	=	750
OC[C@H]1NC[C@H](O)[C@@H](O)[C@@H]1O	=	0.4
CN1C[C@@H](O)[C@H](O)[C@H]1CO	=	180
CCCCN1C[C@H](O)[C@@H](O)[C@H](O)[C@H]1CO	=	5.3
CN1C[C@H](O)[C@@H](O)[C@H](O)[C@H]1CO	=	1.5

====

Entries and their IC50
# Protocol summary: Inhibition of endoplasmic reticulum Alpha-Glucosidase II in rat liver
# Assay type: tissue-based

Smiles representation	Units symbol	Bound type	IC50
CN1C[C@H](O)[C@@H](O)[C@H](O)[C@H]1CO	µM	=	20
OC[C@H]1N[C@H](CO)[C@@H](O)[C@@H]1O	µM	<	50
OC[C@H]1NC[C@@H](O)[C@@H]1O	µM	=	20
CCCCN1C[C@@H](O)[C@H](O)[C@H]1CO	µM	=	200
CCCCN1[C@H](CO)[C@@H](O)[C@H](O)[C@H]1CO	µM	<	50
CCCCN1C[C@H](O)[C@@H](O)[C@H](O)[C@H]1CO	µM	=	15
CN1C[C@@H](O)[C@H](O)[C@H]1CO	µM	=	310
CN1[C@H](CO)[C@@H](O)[C@H](O)[C@H]1CO	µM	<	50

====

# Tested on: MT4
# Protocol summary: Concentration giving 50% inhibition of HIV-1 induced cytopathogenicity in MT-4 cells
# Type: functional, cell-based, Homo sapiens
Readout kind: EC50

Smiles representation	Endpoint result
CCCCN1C[C@H](O)[C@@H](O)[C@H](O)[C@H]1CO	49 µg/mL
CN1C[C@@H](O)[C@H](O)[C@H]1CO	> 100 µg/mL
OC[C@H]1N[C@H](CO)[C@@H](O)[C@@H]1O	> 100 µg/mL
CN1[C@H](CO)[C@@H](O)[C@H](O)[C@H]1CO	> 100 µg/mL
CCCCN1C[C@@H](O)[C@H](O)[C@H]1CO	> 100 µg/mL
CCCCN1[C@H](CO)[C@@H](O)[C@H](O)[C@H]1CO	> 100 µg/mL
OC[C@H]1NC[C@H](O)[C@@H](O)[C@@H]1O	> 100 µg/mL
CN1C[C@H](O)[C@@H](O)[C@H](O)[C@H]1CO	69 µg/mL
OC[C@H]1NC[C@@H](O)[C@@H]1O	> 100 µg/mL

====

The following are reported IC50 results, target or system Alpha-mannosidase 2 (Rattus norvegicus, UniProt P28494).

Smiles representation	System	IC50
OC[C@H]1NC[C@@H](O)[C@@H]1O	Alpha-mannosidase 2 (Rattus norvegicus, UniProt P28494)	46 µM
CN1C[C@H](O)[C@@H](O)[C@H](O)[C@H]1CO	Alpha-mannosidase 2 (Rattus norvegicus, UniProt P28494)	< 50 µM
CN1C[C@@H](O)[C@H](O)[C@H]1CO	Alpha-mannosidase 2 (Rattus norvegicus, UniProt P28494)	64 µM
CN1[C@H](CO)[C@@H](O)[C@H](O)[C@H]1CO	Alpha-mannosidase 2 (Rattus norvegicus, UniProt P28494)	< 50 µM
CCCCN1C[C@H](O)[C@@H](O)[C@H](O)[C@H]1CO	Alpha-mannosidase 2 (Rattus norvegicus, UniProt P28494)	< 50 µM
CCCCN1[C@H](CO)[C@@H](O)[C@H](O)[C@H]1CO	Alpha-mannosidase 2 (Rattus norvegicus, UniProt P28494)	< 50 µM

====

# System: Alpha-mannosidase 2C1 (Rattus norvegicus)
# Sequence (P21139 whole entry): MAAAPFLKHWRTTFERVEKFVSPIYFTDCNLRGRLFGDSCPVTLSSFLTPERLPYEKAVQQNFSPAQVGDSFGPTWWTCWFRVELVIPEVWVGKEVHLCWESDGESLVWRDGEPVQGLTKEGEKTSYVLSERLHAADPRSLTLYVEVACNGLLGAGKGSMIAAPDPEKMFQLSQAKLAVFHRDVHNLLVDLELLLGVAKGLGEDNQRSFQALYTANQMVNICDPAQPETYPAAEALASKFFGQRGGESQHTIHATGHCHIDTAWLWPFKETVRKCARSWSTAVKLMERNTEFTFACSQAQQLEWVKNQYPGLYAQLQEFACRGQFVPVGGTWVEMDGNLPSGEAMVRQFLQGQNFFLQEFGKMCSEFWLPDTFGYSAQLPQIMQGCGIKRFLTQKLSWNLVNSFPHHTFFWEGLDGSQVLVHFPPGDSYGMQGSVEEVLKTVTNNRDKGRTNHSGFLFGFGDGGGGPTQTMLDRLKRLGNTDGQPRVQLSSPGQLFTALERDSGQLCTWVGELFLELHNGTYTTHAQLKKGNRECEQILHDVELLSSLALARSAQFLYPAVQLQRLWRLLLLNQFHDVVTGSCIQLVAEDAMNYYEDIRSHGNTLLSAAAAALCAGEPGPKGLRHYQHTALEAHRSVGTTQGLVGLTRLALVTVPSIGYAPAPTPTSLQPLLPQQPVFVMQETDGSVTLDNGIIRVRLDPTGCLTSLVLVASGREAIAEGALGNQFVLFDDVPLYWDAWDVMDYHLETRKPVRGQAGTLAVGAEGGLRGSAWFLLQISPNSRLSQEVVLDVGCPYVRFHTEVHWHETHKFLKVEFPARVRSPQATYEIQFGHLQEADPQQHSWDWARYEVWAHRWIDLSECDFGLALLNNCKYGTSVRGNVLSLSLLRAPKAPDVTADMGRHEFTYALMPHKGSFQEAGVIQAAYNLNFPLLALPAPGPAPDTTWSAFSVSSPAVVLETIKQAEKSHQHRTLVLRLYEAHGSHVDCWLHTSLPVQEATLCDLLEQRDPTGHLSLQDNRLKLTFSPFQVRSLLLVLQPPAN

Smiles representation	IC50
CCCCN1C[C@@H](O)[C@H](O)[C@H]1CO	< 50 µM
CN1[C@H](CO)[C@@H](O)[C@H](O)[C@H]1CO	190 µM
CCCCN1C[C@H](O)[C@@H](O)[C@H](O)[C@H]1CO	< 50 µM
CN1C[C@@H](O)[C@H](O)[C@H]1CO	< 50 µM
